Reported values of pIC50 for individual entries
target: recombinant human MMP13 catalytic domain (CD) (Homo sapiens, UniProt P45452); construct: catalytic domain (CD) construct encompassing residues 20-274 (SWISS-PROT P45452); assay: MMP-13 catalytic domain FRET enzyme assay; details: recombinant human MMP-13 catalytic domain
pIC50: −log10 of the molar value.

[[record]]
compound = "COc1cc(CNC(=O)c2cc(C3=NOC([C@H]4CC[C@H](NC(=O)N(C)CC(O)CO)CC4)C3)nc(C)n2)ccc1F (stereo partly drawn)"
measured_result = "> 8.00"

[[record]]
compound = "COc1cc(CNC(=O)c2cc(C3=NOC(C4CCN(C(=O)C5CC5)CC4)C3)nc(C)n2)ccc1F (stereo not drawn) [drawing 1063]"
measured_result = "7.00 to 8.00"

[[record]]
compound = "CC(=O)N[C@H]1CC[C@H]([C@@H]2CC(c3cc(C(=O)NCc4ccc5c(c4)NC(=O)CO5)nc(C)n3)=NO2)CC1"
measured_result = "> 8.00"

[[record]]
compound = "COC[C@@H]1CO[C@@H]([C@@H]2CC(c3cc(C(=O)NCc4ccc(F)c(OC)c4)nc(C)n3)=NO2)CO1"
measured_result = "7.00 to 8.00"

[[record]]
compound = "CNC(=O)Cn1cc([C@H]2CC(c3cc(C(=O)NCc4ccc(F)c(OC)c4)nc(C)n3)=NO2)ccc1=O"
measured_result = "7.00 to 8.00"


Alright, here's another compound for you.
Prompt: Which pIC50 reading was recorded for the compound COc1cc(CNC(=O)c2cc(C3=NOC(c4ncccn4)C3)nc(C)n2)ccc1F (stereo not drawn) ?
Response: 7.00 to 8.00

Values were extracted from patent US9029409B2.
